assayed_target: 5-HT2A (Homo sapiens (Human))
Sequence (P28223 whole entry): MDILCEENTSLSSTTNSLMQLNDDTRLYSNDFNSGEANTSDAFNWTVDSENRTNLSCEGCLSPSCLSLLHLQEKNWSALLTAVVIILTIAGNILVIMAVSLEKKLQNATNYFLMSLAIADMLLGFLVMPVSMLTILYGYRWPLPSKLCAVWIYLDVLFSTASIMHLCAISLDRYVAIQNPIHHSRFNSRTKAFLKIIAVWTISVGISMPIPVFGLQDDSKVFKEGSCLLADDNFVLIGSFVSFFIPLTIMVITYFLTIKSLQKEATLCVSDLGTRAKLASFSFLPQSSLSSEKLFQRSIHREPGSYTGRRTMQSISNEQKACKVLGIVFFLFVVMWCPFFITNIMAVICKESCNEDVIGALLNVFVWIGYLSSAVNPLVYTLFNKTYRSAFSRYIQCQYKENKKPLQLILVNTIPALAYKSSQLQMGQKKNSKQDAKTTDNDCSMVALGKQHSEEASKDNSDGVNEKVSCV
assay: Radioligand binding assay, [^3H]5-HT competition, 5-HT2A
settings: [^3H]5-HT radioligand, membranes of HEK293 cells expressing recombinant 5-HT2A; Ki from IC50 by Cheng-Prusoff; read-out: 5-HT2A serotonin binding Ki value
pKi: −log10 of the molar value.
property: pKi

1) Cc1ncnc(C)c1-c1cc(NC(=O)Cc2cncs2)ccc1OCCN1CCCC1 | 8.35
2) Cc1ncnc(C)c1-c1cc(NC(=O)CN2CCCC2)ccc1OCCN1CCCC1 | 5.49
3) Cc1ncnc(C)c1-c1cc(NC(=O)[C@H]2C[C@H]2F)ccc1OCCN1CCCC1 | 8.25
4) Cc1ncnc(C)c1-c1cc(NC(=O)C2CC2)ccc1OCCN(C)C1CCC1 | 7.29

---

Listing of entries alongside the reported pKi.
assayed_target: UniProt P28223
assay: Radioligand binding assay, [^3H]5-HT competition, 5-HT2A
settings: [^3H]5-HT radioligand, membranes of HEK293 cells expressing recombinant 5-HT2A; Ki from IC50 by Cheng-Prusoff; read-out: 5-HT2A serotonin binding Ki value
pKi: −log10 of the molar value.
property: pKi

1. Cc1ncnc(C)c1-c1cc(NC(=O)Cc2ccc(F)cn2)ccc1OCCN1CCC1 | 7.90
2. CO[C@@H]1CCN(CCOc2ccc(NC(=O)C3CC3)cc2-c2c(C)ncnc2C)C1 | 8.39
3. Cc1ncnc(C)c1-c1cc(NC(=O)Cc2cccn2C)ccc1OCCN1CCCC1 | 7.11
4. CCN(C)CCOc1ccc(NC(=O)C2CC2)cc1-c1c(C)ncnc1C | 7.95
